Tested target: Human DP1 receptor (Homo sapiens (Human), UniProt Q13258)
Sequence (Q13258 whole entry): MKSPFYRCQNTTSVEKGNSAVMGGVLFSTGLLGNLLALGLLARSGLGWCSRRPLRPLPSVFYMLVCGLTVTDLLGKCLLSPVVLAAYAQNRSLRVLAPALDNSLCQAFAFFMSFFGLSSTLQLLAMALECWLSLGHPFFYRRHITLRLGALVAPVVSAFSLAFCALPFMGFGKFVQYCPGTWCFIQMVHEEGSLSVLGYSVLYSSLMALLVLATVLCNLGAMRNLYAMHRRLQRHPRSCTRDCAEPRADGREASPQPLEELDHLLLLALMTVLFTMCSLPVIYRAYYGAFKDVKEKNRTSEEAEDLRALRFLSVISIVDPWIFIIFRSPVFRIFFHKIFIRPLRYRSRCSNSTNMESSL
Experimental details: Human DP1 inhibitory activity in DP1-expressing cell (PGD2-induced cAMP)
Type: cell-based
Measurement conditions: category of cAMP IC50, human DP1 receptor expressing Jurkut cell
pIC50: −log10 of the molar value.

{"Compound": "C[C@@H]1CN(S(=O)(=O)c2ccc(C3CC3)cc2)C[C@@H]1n1nc(CC(=O)O)c2ccc(F)cc21 [Compound I-113]", "Tested target": "Human DP1 receptor (Homo sapiens (Human), UniProt Q13258)", "pIC50": "> 7.00"}
{"Compound": "CCOc1ccc(S(=O)(=O)N2C[C@@H](C)[C@@H](n3nc(CC(=O)O)c4ccccc43)C2)c(OC)c1 [Compound I-261]", "Tested target": "Human DP1 receptor (Homo sapiens (Human), UniProt Q13258)", "pIC50": "5.30 to 7.00"}
{"Compound": "Cc1noc([C@H]2C[C@@H](n3nc(CC(=O)O)c4ccc(F)cc43)CN2S(=O)(=O)c2ccc(OC(C)C)cc2)n1 [Compound I-364]", "Tested target": "Human DP1 receptor (Homo sapiens (Human), UniProt Q13258)", "pIC50": "5.30 to 7.00"}
{"Compound": "CCOc1ccc(S(=O)(=O)N2C[C@H](C)[C@@H](n3nc(CC(=O)O)c4ccccc43)C2)cc1 [Compound I-198]", "Tested target": "Human DP1 receptor (Homo sapiens (Human), UniProt Q13258)", "pIC50": "5.30 to 7.00"}
{"Compound": "COc1ccccc1OC[C@H]1C[C@@H](n2nc(CC(=O)O)c3ccc(F)cc32)CN1S(=O)(=O)c1ccc(OC(C)C)cc1 [Compound I-344]", "Tested target": "Human DP1 receptor (Homo sapiens (Human), UniProt Q13258)", "pIC50": "> 7.00"}
{"Compound": "CCOc1ccc(S(=O)(=O)N2C[C@@H](C)[C@@H](n3nc(CC(=O)O)c4ccccc43)C2)c(N)c1 [Compound I-325]", "Tested target": "Human DP1 receptor (Homo sapiens (Human), UniProt Q13258)", "pIC50": "> 7.00"}
{"Compound": "COc1ccc2c(CC(=O)O)nn([C@H]3CN(S(=O)(=O)c4ccc(OC(C)C)cc4)C[C@H]3C)c2c1 [Compound I-204]", "Tested target": "Human DP1 receptor (Homo sapiens (Human), UniProt Q13258)", "pIC50": "> 7.00"}
{"Compound": "CCOc1ccc(S(=O)(=O)N2C[C@@H](C)[C@@H](n3nc(CC(=O)O)c4c(F)cccc43)C2)cc1 [Compound I-150]", "Tested target": "Human DP1 receptor (Homo sapiens (Human), UniProt Q13258)", "pIC50": "> 7.00"}
{"Compound": "CCOc1ccc(S(=O)(=O)N2C[C@@H](C)[C@@H](n3nc(CC(=O)O)c4ccc(C5=CCCCC5)cc43)C2)cn1 [Compound I-221]", "Tested target": "Human DP1 receptor (Homo sapiens (Human), UniProt Q13258)", "pIC50": "> 7.00"}
